Measured values drawn from PubChem BioAssay AID1508600 for this set.

assay: Components of the Cytosolic LPS Sensing Pathway: Gene Identification via Genome-wide siRNA Screen; details: RAW264.7 macrophages, IL-1a HTRF, actives lie on both sides, screened at 100 nM (by protocol), cells primed 5 h with Pam3CSK4 first;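 note: robust z of the log signal after scaling to non-targeting control siRNA wells of the plate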
The whole screen tested about 53,000 sequences, of which about 3,700 (7%) were called active. Only a selection was taken, and actives are over-represented in it overall.
sequences and their reported z-score
The response must contain the number and no unit.

Example entries and their recorded answers appear below.
stdin: Would you kindly share the measured z-score for CCUAUUACUCAAACACAGATT against Arl5b ?
stdout: -0.257

stdin: # get_value(readout='z-score', item= GGAAAUGAAGAGUGUUGAATT against Slc7a3 )
stdout: -0.4

stdin: Field request: z-score | item: CCAAACAGGCUUUUUUCCUTT against Snx31
stdout: -0.712

stdin: Need z-score, item GGUCAUGAACCUCAUCAUCTT against Nckap1l
stdout: -0.552

stdin: So what's the measured z-score for this one? GGAAUUAAAGAGGAACUCCTT against Adamts20
stdout: 0.172

Further cases:
stdin: So what's the measured z-score for this one? GGUGAGCAAAGCCAAGAAGTT against Sgpl1
stdout: -1.42

stdin: Data request, read-out z-score, for GGUGACACAGCUGCUUUUCTT against Dact2
stdout: 0.107

stdin: Look up z-score for this sequence: GGUCUCCAUCACAUUCAAGTT against BC024139
stdout: 1.19

* * *

experiment: Components of the Cytosolic LPS Sensing Pathway: Gene Identification via Genome-wide siRNA Screen; conditions: RAW264.7 macrophages, IL-1a HTRF, actives lie on both sides, screened at 100 nM (by protocol), cells primed 5 h with Pam3CSK4 first;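 note: robust z of the log signal after scaling to non-targeting control siRNA wells of the plate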
Hit rate of the full screen: of about 53,000 sequences, about 3,700 (7%) were called active.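 The calls were made as follows: active = gene knockdowns whose robust z-score for IL-1 alpha signal is at least 2 or at most -2, so actives lie on both sides; inactive = the rest.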 Many of the other results were omitted from the sample, so actives are more common in it than they were.
Choose one outcome from this list and give only that: active, inactive

# count of solved cases: 5
stdin: Hi team, can someone confirm the assay call for CCAACAAUGUUUAAAGGAUTT against Olfr476 ?
stdout: inactive

stdin: What classification did CCUCUUCUUGUUUCAAGGGTT against Piezo2 end up with in this test?
stdout: inactive

stdin: What call does the record list for GGACCGCCUUCAACAACAATT against Tpgs1 ?
stdout: active

stdin: Which result was noted for this sequence in the test: GGACCACUACAUCAUAUACTT against Lcn4
stdout: inactive

stdin: For GGACCUGAAUUCCACUCCUTT against Socs1 , which call appears in the assay record?
stdout: inactive

***
stdin: Look up the recorded call for GGUUCCUCUUGUGAGUGCCTT against Gpr137b in this test.
stdout: inactive

stdin: How did this test come out for GGUAGAAAAAACACAAACGTT against Ppp2r3c ?
stdout: inactive

* * *

Assay: Components of the Cytosolic LPS Sensing Pathway: Gene Identification via Genome-wide siRNA Screen;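 note: robust z of the log signal after scaling to non-targeting control siRNA wells of the plate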
Conditions: RAW264.7 macrophages, IL-1a HTRF, actives lie on both sides, screened at 100 nM (by protocol), cells primed 5 h with Pam3CSK4 first
Method: Non-canonical inflammasome activation by cytosolic LPS is a critical component of the host response to Gram-negative bacterial infection, however we lack a comprehensive understanding of the cellular processes that control this pathway. […] Lipofectamine RNAiMAX Transfection Reagent ([…]; Invitrogen) was added in […] serum-free, antibiotic-free media to plate wells using a Thermo Scientific Matrix WellMate and Microplate Stacker. […] The plates were read on an EnVision plate reader (PerkinElmer). […]
Among all 53,000 sequences or so, about 3,700 (7%) were called active. The entries come from a sample that favours actives as a whole.
// reported z-score per item

Use these answered entries as a reference point.
stdin: Could you tell me which z-score is on file for GCACUUACCGGAUCCAUUGTT against Clk4 ?
stdout: -0.793 (inactive)

stdin: Report z-score for CCUCUUAGAUCAGGAUUAUTT against Usp37 please.
stdout: 0.991 (inactive)

stdin: Could you share which z-score value was measured for GCCACCUAAUUUACAAUCUTT against Ccn3 ?
stdout: 0.573 (inactive)

stdin: Entry under review: GGUAAGAGGAUGGACACAATT against Chst1 . Reported z-score?
stdout: 1.08 (inactive)

stdin: Tell me the measured z-score of GGAUCAAGGAGCAAGUGGUTT against B4galnt1 , please.
stdout: -1.7 (inactive)

stdin: May I ask what z-score has been recorded for GGACUGAUAUCAUUUCUGATT against Flacc1 ?
stdout: -1 (inactive)

Next:
stdin: # z-score lookup, item GGCUUUCGGUUAUGACCAATT against Alas2
stdout: -0.385 (inactive)

stdin: Requested read-out: z-score. Entry: GCAACUGUUCUACGUCUGATT against Tmprss2
stdout: 1.63 (inactive)

stdin: Need z-score, item CCAAAUGCUUAUCUCUACATT against Dock6
stdout: 0.00388 (inactive)

stdin: Would you kindly share the measured z-score for GCAGGCAUCAUCACGACAUTT against Gprc5c ?
stdout: 0.402 (inactive)

stdin: Form field: reported z-score of CCGACAUUCGAGUUUUGCGTT against Rrp9
stdout: -0.532 (inactive)

stdin: Please report the recorded z-score for GGCCUUGUAUCUCUUUACATT against Hdgf .
stdout: 0.425 (inactive)
